Ref: ChEMBL document CHEMBL4619802

// values below are reported Activity
# Test Target: HTH-type quorum-sensing regulator RhlR (Pseudomonas aeruginosa (strain ATCC 15692 / PAO1 / 1C / PRS 101 / LMG12228))
# Protocol Text: Agonist activity at Pseudomonas aeruginosa RhlR expressed in Escherichia coli DH5alpha assessed as relative protein activity at 100 uM incubated for 1.5 hrs by luminescence reporter gene assay relative to control
Measurement Label: Activity (%)

Compound	Measurement Label	Test Value
CCCC(=O)NC1CCCC1	Activity	4
CCCC(O)CC(=O)/C=C/c1ccc(O)c(O)c1 (configuration not stated)	Activity	3
CCCCC(=O)C#Cc1ccc(F)c(F)c1	Activity	4
CCCC(O)CC(=O)CCc1cc(F)cc(OC)c1 (configuration not stated)	Activity	3
CCCCC[C@H](O)C#Cc1ccc(O)c(OC)c1	Activity	3
CCCCC[C@H](O)C#Cc1ccc(F)c(F)c1	Activity	4
CCCCCC(O)C#Cc1ccc(O)c(OC)c1 (racemic)	Activity	3
